B1: Unconventional myosin-Ie, residues 1051 to 1108; numbered along this chain, Q12965 (parent)
chain: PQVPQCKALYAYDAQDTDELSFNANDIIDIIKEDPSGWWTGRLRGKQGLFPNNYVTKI

variants of: B1; assay: abundance fitness (aPCA) (normalised: wild type 0, dead -1); higher = more abundant; growth selection in yeast, the domain comes from the species named; conditions: Homo sapiens
# binarize abundance fitness: threshold -0.1 inclusive, high side Condition met, low side Condition not met

>>> df
    mutationstring                cat
 0            P51K  Condition not met
 1            N25A  Condition not met
 2            T40E  Condition not met
 3            N23G      Condition met
 4            I58G  Condition not met
 5            A14M  Condition not met
 6             L9R  Condition not met
 7            D26Q  Condition not met
 8             Q5Y      Condition met
 9            R42P  Condition not met
10            L49Q  Condition not met
11            A11F  Condition not met
12            Y54N  Condition not met
13            Y54D  Condition not met
14             K7R  Condition not met
15            V55S  Condition not met
16            D26Y  Condition not met
17            Q47Y      Condition met
18             Q2V  Condition not met
19            L20H  Condition not met
20             P1S      Condition met
21             K7A  Condition not met
22            T40M      Condition met
23            I27E  Condition not met
24            I31N  Condition not met
25            R42T  Condition not met
26            N25H  Condition not met
27            T56H      Condition met
28            I30M  Condition not met
29            Y12W  Condition not met
30             Q5F  Condition not met
31             L9G  Condition not met
32            I31T  Condition not met
33            G45Q  Condition not met
34            D34K  Condition not met
35            Y54E  Condition not met
36            G41V  Condition not met
37            P51C  Condition not met
38            P35D      Condition met
39            P51W  Condition not met
40            T17N  Condition not met
41            Y10R      Condition met
42            I27C  Condition not met
43            E19N  Condition not met
44            T56D      Condition met
45            S36E  Condition not met
46            T56N      Condition met
47            R44A      Condition met
48            P35V      Condition met
49            Q15R      Condition met
50            D26P  Condition not met
51            Q15K  Condition not met
52            E33K  Condition not met
53            R42D  Condition not met
54            I27A  Condition not met
55            K57L  Condition not met
56            N52K  Condition not met
57            Q15L  Condition not met
58             L9V  Condition not met
59            T17W      Condition met
60            D18A  Condition not met
61             K7F  Condition not met
62            D29P  Condition not met
63            P35K      Condition met
64            F22C  Condition not met
65            G37T  Condition not met
66            T40R  Condition not met
67            L43I      Condition met
68            R42N      Condition met
69            N23D      Condition met
70            N53G      Condition met
71            S36K      Condition met
72            D13Y  Condition not met
73            A24I      Condition met
74            D29V  Condition not met
75            F22M  Condition not met
76            G41C  Condition not met
77            Q47C  Condition not met
78             Q2F  Condition not met
79            I58V      Condition met
80            P35S      Condition met
81            R44S      Condition met
82            I58R  Condition not met
83            Y54A      Condition met
84             L9H  Condition not met
85            Y12C  Condition not met
86            Y12E  Condition not met
87             L9E  Condition not met
88            K46R      Condition met
89            Y12G  Condition not met
90            G48R  Condition not met
